experiment-notes: Inhibition of porcine succinate-cytochrome c reductase using succinate and cytochrome c as substrates by spectrophotometric based assay
Set-up: species or system Sus scrofa
property-measured: IC50

[
  {
    "given-smiles": "O=S(=O)(Nc1cc(Cl)c(Oc2c(Cl)cc(Cl)cc2Cl)c(Cl)c1)c1ccc(Cl)cc1Cl",
    "measured-result": "1030 nM"
  },
  {
    "given-smiles": "O=S(=O)(Nc1cc(Cl)c(Oc2c(Cl)cc(Cl)cc2Cl)c(Cl)c1)c1ccc(C(F)(F)F)cc1Cl",
    "measured-result": "1080 nM"
  },
  {
    "given-smiles": "O=[N+]([O-])c1ccc(S(=O)(=O)Nc2cc(Cl)c(Oc3ccc(Cl)cc3Cl)c(Cl)c2)cc1",
    "measured-result": "3570 nM"
  }
]

Record `O=S(=O)(Nc1ccc(Oc2c(Cl)cc(Cl)cc2Cl)c(Cl)c1)c1ccccc1` . Reported IC50: > 10000 nM

Just so you know, measured IC50 for `O=[N+]([O-])c1ccc(S(=O)(=O)Nc2ccc(Oc3ccc(Cl)cc3Cl)cc2)cc1` came out at 4860 nM

Briefly, IC50 measured for `CC(C)(C)c1ccc(S(=O)(=O)Nc2cc(Cl)c(Oc3c(Cl)cc(Cl)cc3Cl)c(Cl)c2)cc1` : 990 nM
